molecular target: kinase domain of IRE1 alpha (His-tagged kinase dead construct KR, AA G547-L977, D688N) (Homo sapiens (Human), UniProt O75460, D688N); assay: IRE1α TR-FRET competition binding assay; conditions: competition with Kinase Tracer 236, 0.1 μM; one hour at room temperature
Sequence (O75460 547-977 D688N): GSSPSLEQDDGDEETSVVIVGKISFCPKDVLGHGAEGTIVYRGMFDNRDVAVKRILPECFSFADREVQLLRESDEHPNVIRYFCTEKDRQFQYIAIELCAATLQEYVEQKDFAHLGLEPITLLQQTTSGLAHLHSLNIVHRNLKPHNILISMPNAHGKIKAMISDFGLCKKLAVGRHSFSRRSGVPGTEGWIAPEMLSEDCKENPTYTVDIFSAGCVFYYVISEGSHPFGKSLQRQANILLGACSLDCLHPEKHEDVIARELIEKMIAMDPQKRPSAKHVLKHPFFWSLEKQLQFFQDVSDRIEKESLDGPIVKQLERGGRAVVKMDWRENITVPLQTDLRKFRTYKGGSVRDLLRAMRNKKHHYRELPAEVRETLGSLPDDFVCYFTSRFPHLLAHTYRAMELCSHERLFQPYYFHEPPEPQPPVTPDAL
Where a name gives a salt, the structure may show the parent alone.
experimentalEndpoint: IC50 (nM)
The answer is to be given in nM; state only the numeric part.

Look at this molecule and give its reported IC50. `O=S(=O)(Cc1ccc(C2CC2)cc1)Nc1c(F)cc(Oc2ncccc2-c2ccnc(N[C@@H]3CNC[C@@H](F)C3)n2)c(F)c1F`
0.23

Give the measured IC50 of Cc1c(Oc2ncccc2-c2ccnc(N[C@H]3CCCNC3)n2)cc(F)c(NS(=O)(=O)Cc2ccccc2)c1F [Compound 154, hydrochloride] .
3.8

Fill in: IC50 of `N#Cc1cccc(S(=O)(=O)Nc2ccc(Oc3ncccc3-c3ccnc(N[C@H]4CCCNC4)n3)c(F)c2F)c1` is ___
19

What IC50 value was documented for this molecule, CC(F)C1CNCC(Nc2nccc(-c3cccnc3Oc3cc(F)c(NS(=O)(=O)Cc4ccccc4)c(F)c3F)n2)C1 (single isomer, unassigned) [Compound 347] ?
49

Would you mind telling me what IC50 value was observed for `Cc1cccc(CS(=O)(=O)Nc2c(F)cc(Oc3ncccc3-c3ccnc(N[C@@H]4CNC[C@@H](F)C4)n3)c(F)c2F)c1` ?
0.7

# get_value(readout='IC50', item= C[C@@H](c1ccccc1)S(=O)(=O)Nc1c(F)cc(Oc2ncccc2-c2ccnc(N[C@@H]3CNC[C@@H](F)C3)n2)c(F)c1F (single isomer, unassigned) )
0.2

# query: IC50 of entry `O=S(=O)(Cc1ccc(F)cc1Cl)Nc1c(F)cc(Oc2ncccc2-c2ccnc(N[C@@H]3CNC[C@@H](F)C3)n2)c(F)c1F`
0.7

Give its IC50 value. Item: O=S(=O)(Cc1ccccc1)Nc1c(F)cc(Oc2ncccc2-c2ccnc(NC3CC4CCCN(C4)C3)n2)c(F)c1F (single isomer, unassigned) [Compound 287, hydrochloride]
1.5

Value lookup for IC50; key = `O=S(=O)(Cc1cccc(Cl)c1)Nc1c(F)cc(Oc2ncccc2-c2ccnc(N[C@@H]3CNC[C@@H](F)C3)n2)c(F)c1F`
0.3

What IC50 value was documented for this molecule, `CN(C)S(=O)(=O)Nc1c(F)cc(Oc2ncccc2-c2ccnc(N[C@@H]3CNC[C@@H](F)C3)n2)c(F)c1F` ?
8.6

What IC50 value was documented for this molecule, `O=S(=O)(Cc1ccccc1)Nc1ccc(Cl)c(Oc2ncccc2-c2ccnc(N[C@H]3CCCNC3)n2)c1F` ?
15

Please report the recorded IC50 for `O=S(=O)(Cc1ccc(F)c(Cl)c1)Nc1c(F)cc(Oc2ncccc2-c2ccnc(N[C@@H]3CNC[C@@H](F)C3)n2)c(F)c1F` .
0.2

Would you mind telling me what IC50 value was observed for Cc1cc(NS(=O)(=O)C(C)c2ccccc2)c(F)c(F)c1Oc1ncccc1-c1ccnc(N[C@@H]2CNC[C@@H](F)C2)n1 (single isomer, unassigned) [Compound 314] ?
0.24

Find the recorded IC50 belonging to O=C(Nc1ccc(Oc2ncccc2-c2ccnc(N[C@H]3CCCNC3)n2)c(F)c1F)C1CC12CC2 (single isomer, unassigned) [Compound 150, hydrochloride] and report it.
300

Look up IC50 for this molecule: Cc1cc(NS(=O)(=O)C(C)c2ccccc2)c(F)c(F)c1Oc1ncccc1-c1ccnc(N[C@@H]2CNC[C@@H](F)C2)n1 (single isomer, unassigned) [Compound 313, hydrochloride]
1.2

Which measured IC50 value corresponds to O=S(=O)(Cc1ccccc1F)Nc1c(F)cc(Oc2ncccc2-c2ccnc(NC3CNCC(C4CC4)C3)n2)c(F)c1F (single isomer, unassigned) [Compound 324] ?
0.4

Data request, read-out IC50, for `CN(C)[C@H]1CC[C@H](Nc2nccc(-c3cccnc3Oc3cc(F)c(NS(=O)(=O)CCC(C)(F)F)c(F)c3F)n2)CC1`
0.32

Give its IC50 value. Item: `CCCS(=O)(=O)Nc1ccc(F)c(Oc2ncccc2-c2ccnc(N[C@H]3CCCNC3)n2)c1`
370

Dear colleague, I am looking for the recorded IC50 of the following molecule: CC(F)(F)C1CNCC(Nc2nccc(-c3cccnc3Oc3cc(F)c(NS(=O)(=O)Cc4ccccc4)c(F)c3F)n2)C1 (single isomer, unassigned) [Compound 339]
0.24

Value lookup for IC50; key = `O=S(=O)(Cc1ccccc1)Nc1ccc(Oc2ncccc2-c2ccnc(N[C@H]3CCCNC3)n2)c(F)c1Cl`
4.2

# get_value(readout='IC50', item= `CC(C)(C)CCCS(=O)(=O)Nc1ccc(Oc2ncccc2-c2ccnc(N[C@H]3CCCNC3)n2)c(F)c1F` )
14

Can you look up the measured IC50 of `C[C@@]1(F)CNC[C@@H](Nc2nccc(-c3cccnc3Oc3ccc(NS(=O)(=O)Cc4ccccc4)c(F)c3F)n2)C1` for me?
3.1

I am curious: what IC50 value has been reported for `C[C@@]1(F)CNC[C@@H](Nc2nccc(-c3cccnc3Oc3cc(F)c(NS(=O)(=O)Cc4ccc(F)cc4F)c(F)c3F)n2)C1` ?
0.34

Form field: reported IC50 of Cc1cc(NS(=O)(=O)c2ccccc2Cl)cc(F)c1Oc1ncccc1-c1ccnc(N[C@H]2CC[C@H](N)CC2)n1 [Compound 102, hydrochloride]
10
